B1: Tyrosine-protein kinase Lck, residues 63 to 120; numbered along this chain, P06239 (parent)
chain: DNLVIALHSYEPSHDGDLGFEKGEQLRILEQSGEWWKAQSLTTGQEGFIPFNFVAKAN

- Variants of: B1
- ASSAY_TEXT: abundance fitness (aPCA) (normalised: wild type 0, dead -1); higher = more abundant; growth selection in yeast, the domain comes from the species named
- CONDITIONS: Homo sapiens
Outcome label depends on abundance fitness relative to -0.5: at/above gives Condition met, below gives Condition not met.

Please indicate if the recorded abundance fitness for L26N meets or exceeds -0.5.
Condition not met

Please indicate if the recorded abundance fitness for G19N meets or exceeds -0.5.
Condition met

Please indicate if the recorded abundance fitness for D17C meets or exceeds -0.5.
Condition met

Please indicate if the recorded abundance fitness for V54N meets or exceeds -0.5.
Condition not met

Please indicate if the recorded abundance fitness for F51P meets or exceeds -0.5.
Condition met

Please indicate if the recorded abundance fitness for S32K meets or exceeds -0.5.
Condition met

Please indicate if the recorded abundance fitness for G16F meets or exceeds -0.5.
Condition met

Please indicate if the recorded abundance fitness for L26H meets or exceeds -0.5.
Condition not met

Please indicate if the recorded abundance fitness for Q45R meets or exceeds -0.5.
Condition met

Please indicate if the recorded abundance fitness for P12K meets or exceeds -0.5.
Condition met

The measurements presented in this section are drawn from the Human Domainome abundance scans (Beltran et al. 2025).
